Target: PtVDE (Phaeodactylum tricornutum, UniProt B7FUR6)
Sequence (B7FUR6 105-437): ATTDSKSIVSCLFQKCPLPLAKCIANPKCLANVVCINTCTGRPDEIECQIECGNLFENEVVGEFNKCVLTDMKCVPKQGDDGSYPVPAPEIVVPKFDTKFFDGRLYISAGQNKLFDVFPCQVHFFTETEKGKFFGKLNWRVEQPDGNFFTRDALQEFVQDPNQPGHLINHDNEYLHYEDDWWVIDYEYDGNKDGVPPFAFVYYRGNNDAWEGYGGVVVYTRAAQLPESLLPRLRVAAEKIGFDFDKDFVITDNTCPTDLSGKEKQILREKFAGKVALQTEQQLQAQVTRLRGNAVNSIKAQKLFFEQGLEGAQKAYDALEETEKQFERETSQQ
property-measured: IC50 (µM)
Number only, in µM; omit the unit.

[Q] Provide only the value of recorded IC50 for OC(CS)C(O)CS (stereo not shown) [DTT]
[A] 680
